Item-by-item account of TGI
Tested on: A549 NSCLC
Experiment: NCI tumour cell line growth inhibition, 48 h
PARAMETER: TGI

# SMILES_CODE, DATA_VALUE
data = [
    ("c1ccc(N=c2snc3scc(-c4ccccc4)n23)cc1", "> 100 µM"),
    ("NC(=NCCCC1(c2ccccc2)CCCC1)Nc1ccc(Cl)cc1", "3.61 µM"),
    ("Nc1nc(Cl)cc(NCCCCCNc2cc(Cl)nc(N)n2)n1", "> 100 µM"),
    ("Cc1cc(=O)oc2cc(SC(=O)N(C)C)ccc12", "> 100 µM"),
    ("Cc1ccccc1N=CN(C)C", "> 100 µM"),
    ("O=c1cc(-c2ccccc2)oc2cc(OCC(O)COc3ccc4c(=O)cc(-c5ccccc5)oc4c3)ccc12", "> 100 µM"),
]

###

TGI: recorded values
System: HCC-2998 colon
Assay: NCI tumour cell line growth inhibition, 48 h
PARAMETER: TGI

# COMPOUND, PARAMETER, DATA_VALUE
rows = [
    ("Cn1cc(-c2csc(-c3cn(C)c4ccc(Br)cc34)n2)c2cnccc21", "TGI", "3.57 µM"),
    ("CC(C)(C)N1C(=O)c2ccccc2C1(O)C(F)(F)F (stereo not drawn)", "TGI", "> 100 µM"),
    ("CCOC(=O)C(Cc1c[nH]c2ccc([N+](=O)[O-])cc12)(NC(C)=O)C(=O)OCC", "TGI", "> 1000 µM"),
    ("O=Nc1ccc(O)c2ccccc12", "TGI", "11.3 µM"),
    ("C[C@@H](N)C1CCC(C(=O)Nc2ccncc2)CC1 (stereo partly drawn)", "TGI", "> 100 µM"),
    ("O=C(CSc1nnc(Cc2ccccc2)o1)Nc1cccc(Cl)c1", "TGI", "> 100 µM"),
    ("C#CCSc1n[nH]c(-c2ccco2)n1", "TGI", "> 100 µM"),
    ("C=CCCCn1ccc2ccccc21", "TGI", "> 100 µM"),
    ("CC(C)/C(Cl)=N/OC(=O)Nc1cccc(C(F)(F)F)c1", "TGI", "30 µM"),
    ("Cc1ccccc1[P+](C)(c1ccccc1C)c1ccccc1C", "TGI", "12.6 µM"),
    ("O=C(Nc1ccc(Cl)cc1)NS(=O)(=O)c1coc2ccccc2c1=O", "TGI", "> 10 µM"),
    ("COc1cc2c3c(c4ccc(OC)c(OC)c4c2cc1OC)CN1CCC[C@@H]1C3", "TGI", "1.78 µM"),
    ("CCc1n[nH]c(=O)n1N1C(=O)CCC1=O", "TGI", "> 100 µM"),
    ("COc1cc(-c2nc(NC(C)=O)sc2-c2ccnc(NCCNS(=O)(=O)c3ccccc3)n2)ccc1Cl", "TGI", "> 100 µM"),
    ("Cc1c(C#N)c(N)[nH]c(=S)c1C#N", "TGI", "> 100 µM"),
    ("CC(=O)OCc1ccc2oc(=O)c(C(=O)Oc3cccc(Cl)c3)cc2c1", "TGI", "39.3 µM"),
    ("CN1C(=O)CN2C(Cl)(Cl)C2(c2ccccc2F)c2cc([N+](=O)[O-])ccc21 (stereo not drawn)", "TGI", "86 µM"),
    ("Cc1cc(N)ccc1N=Nc1ccc(S(=O)(=O)CCOS(=O)(=O)O)cc1", "TGI", "6.74 µM"),
    ("COc1cccc(NC(=O)C(C)(C)C)c1C=O", "TGI", "> 100 µM"),
    ("NC(=O)C1c2ccccc2C=Cc2ccccc21", "TGI", "> 100 µM"),
    ("COC(=O)C(=O)C(C(=O)C1=NS(=O)(=O)c2cc(S(N)(=O)=O)c(Cl)cc2N1)c1nc2ccc(C(=O)c3ccccc3)cc2[nH]c1=O (stereo not drawn)", "TGI", "> 100 µM"),
    ("O=c1[nH]cc(/C=N\\Nc2ccccc2)c(=O)[nH]1", "TGI", "> 100 µM"),
    ("O=C(/C=C/c1ccc(O)c(O)c1)OCc1ccccc1", "TGI", "> 100 µM"),
]
